These data points were gathered from patent US20240109881A1.

# target or test system: IRAK4 (Homo sapiens)
# Construct: endogenous in cells; host or cells: THP-1 cells
# Sequence (Q9NWZ3 whole entry): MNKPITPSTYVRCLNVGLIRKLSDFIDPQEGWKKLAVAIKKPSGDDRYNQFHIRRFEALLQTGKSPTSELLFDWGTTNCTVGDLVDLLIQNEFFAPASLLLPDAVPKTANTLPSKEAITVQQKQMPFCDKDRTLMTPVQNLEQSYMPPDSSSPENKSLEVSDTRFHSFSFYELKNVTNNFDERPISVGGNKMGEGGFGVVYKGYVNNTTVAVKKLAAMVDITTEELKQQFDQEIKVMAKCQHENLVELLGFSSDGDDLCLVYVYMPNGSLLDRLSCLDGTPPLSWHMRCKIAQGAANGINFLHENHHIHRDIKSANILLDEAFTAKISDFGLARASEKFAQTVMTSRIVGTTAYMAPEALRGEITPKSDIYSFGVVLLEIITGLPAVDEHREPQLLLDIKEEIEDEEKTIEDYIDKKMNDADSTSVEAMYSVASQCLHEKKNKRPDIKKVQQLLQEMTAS
# protocol notes: ALE THP1 HTRF (Advanced Lipoxidation End Product THP1 Homogeneous Time Resolved Fluorescence)
# Assay type: cell-based
# assay context: THP1 cells
Given measured ALE THP1 HTRF YMIN, output class 1 if it is greater than or equal to 10% and class 0 if not.

| molecule | group label |
| --- | --- |
| N#Cc1cnc2c(cnn2-c2cc(NC3CCCC3)c(C(=O)NC3CCC(CN4CCC(C(=O)Nc5ccc(C6CCC(=O)NC6=O)cc5)CC4)CC3)cn2)c1 (stereo not drawn) [P-31] | class 1 |
| N#Cc1cnc2c(ccn2-c2cc(NC3CCCC3)c(C(=O)NC3CCC(C(=O)N4CCN(c5ccc6c(c5)C(=O)N(C5CCC(=O)NC5=O)C6=O)CC4)CC3)cn2)c1 (stereo not drawn) [P-6] | class 1 |
| N#Cc1cnc2c(cnn2-c2cc(NC3CC3)c(C(=O)NC3CCC(C(=O)N4CCN(c5ccc6c(c5)C(=O)N(C5CCC(=O)NC5=O)C6)CC4)CC3)cn2)c1 (stereo not drawn) [P-22] | class 1 |
| O=C1CCC(c2ccc(N3CCN(CC[C@H]4CC[C@H](NC(=O)c5cnc(-n6ncc7cncnc76)cc5NC5CC5)CC4)CC3)cc2)C(=O)N1 (stereo partly drawn) [P-117] | class 1 |
| N#Cc1cnc2c(cnn2-c2cc(NC3CC3)c(C(=O)NC3CCC(NCC4CCN(c5ccc(C6CCC(=O)NC6=O)cc5)CC4)CC3)cn2)c1 (stereo not drawn) [P-102] | class 1 |

Exercise: Decide: is the reported value of ALE THP1 HTRF YMIN for N#Cc1cnc2c(-c3cc(NC4CC4)c(C(=O)NC4CCC(CCN5CCN(c6ccc(C7CCC(=O)NC7=O)cc6)CC5)CC4)cn3)cnn2c1 (stereo not drawn) [P-93] equal to or greater than 10%?
Key: class 1

Exercise: Decide: is the reported value of ALE THP1 HTRF YMIN for N#Cc1cnc2c(cnn2-c2cc(NC3CC(F)(F)C3)c(C(=O)NC3CCC(CCN4CCN(c5ccc(C6CCC(=O)NC6=O)cc5)CC4)CC3)cn2)c1 (stereo not drawn) [P-97] equal to or greater than 10%?
Key: class 1

Exercise: Decide: is the reported value of ALE THP1 HTRF YMIN for COc1cc(C2CCC(=O)NC2=O)ccc1N1CCN(CCC2CCC(NC(=O)c3cnc(-n4ncc5cc(C#N)cnc54)cc3NC3CC3)CC2)CC1 (stereo not drawn) [P-80] equal to or greater than 10%?
Key: class 0

====

# target or test system: IRAK4 (Homo sapiens)
# Construct: endogenous in cells; host or cells: THP-1 cells
# protocol notes: LVL THP1 HTRF (THP1 Homogeneous Time Resolved Fluorescence)
# Assay type: cell-based
# assay context: THP1 cells, 18 h incubation with compound, read-out: LVL THP1 HTRF EC50
recorded endpoint: DC50 (nM)
Write the answer as a number in nM, unit excluded.

| compound | DC50, nM |
| --- | --- |
| C[C@H](C#N)Nc1cc(-n2ncc3cc(C#N)cnc32)ncc1C(=O)N[C@H]1CC[C@H](CCN2[C@@H]3C[C@H]2CN(c2ccc(C4CCC(=O)NC4=O)cc2)C3)CC1 (stereo partly shown) [P-183] | 12 |
| C[C@H](C#N)Nc1cc(-n2ncc3cc(C#N)cnc32)ncc1-n1cc([C@H]2CC[C@H](CCN3CC4(CC(c5ccc(N6CCC(=O)NC6=O)c(F)c5)C4)C3)CC2)nn1 [P-444] | 5.2 |
| CC(C)(O)CNc1cc(-n2ncc3cc(C#N)cnc32)ncc1-n1cc([C@H]2CC[C@H](CCN3CCN(c4ccc(C5CCC(=O)NC5=O)cc4)CC3)CC2)nn1 (stereo partly shown) [P-391] | 3.7 |
| C[C@H](C#N)Nc1cc(-n2ncc3cc(C#N)c(N)nc32)ncc1-n1cc([C@H]2CC[C@H](CCN3CCN(c4ccc([C@@]5(C)CCC(=O)NC5=O)cc4)[C@H](C)C3)CC2)nn1 (stereo in doubt) [P-260] | 17 |
| C[C@H](C#N)Nc1cc(-n2ncc3cc(C#N)cnc32)ncc1-n1cc([C@H]2CC[C@H](CCN3CC4(CC(c5ccc(N6CCC(=O)NC6=O)c(Cl)c5)C4)C3)CC2)nn1 [P-432] | 1.3 |

Exercise: What does the record list as DC50 for C[C@H](C#N)Nc1cc(-n2ncc3cc(C#N)cnc32)ncc1-c1cn([C@H]2CC[C@H](CCN3CCN(c4ccc(N5CCC(=O)NC5=O)cc4)[C@H](C)C3)CC2)nn1 [P-501] ?
Key: 2.2

Exercise: What does the record list as DC50 for C[C@H](C#N)Nc1cc(-n2ncc3cc(C#N)cnc32)ncc1-n1cc([C@H]2CC[C@](O)(CCN3CCN(c4ccc(N5CCC(=O)NC5=O)cc4)CC3)CC2)nn1 (single isomer, unassigned) [P-429] ?
Key: 59.4

Exercise: What does the record list as DC50 for C[C@H](C#N)Nc1cc(-n2ncc3cc(C#N)cnc32)ncc1-n1cc([C@H]2CC[C@H](CCN3CCC(c4ccc5c(N6CCC(=O)NC6=O)nn(C)c5c4)CC3)CC2)nn1 [P-476] ?
Key: 2

Exercise: What does the record list as DC50 for C[C@H](C#N)Nc1cc(-n2ncc3cc(C#N)cnc32)ncc1-n1cc(C2CCC(CCN3CCN(c4ccc(C5CCC(=O)NC5=O)cc4)C4COCC43)CC2)nn1 (single isomer, unassigned) [P-237] ?
Key: 7

Exercise: What does the record list as DC50 for C[C@H](C#N)Nc1cc(Nc2ncc(C#N)cc2Cl)ncc1-n1cc([C@H]2CC[C@H](CCN3CC[C@H]4[C@@H]3CCN4c3ccc(N4CCC(=O)NC4=O)cc3)CC2)nn1 (single isomer, unassigned) [P-500] ?
Key: 43.4
